# procedure.text: qHTS RealTime-Glo MT Cell Viability Assay in HEK293 cells - 8 hour (AID 1224887); further: top concentration of the series differs between compounds; nearly all actives have a fitted effect of over 50% in size
# condition.label: RealTime-Glo luminescence; series mostly up to 76.8 µM
Results filed as inconclusive are left out. Active and inactive are the calls of the source. The call rests on the fitted dose curve; in most records, active means well fitted cell-killing curve with a large enough effect in the repeat runs; inconclusive means weak or mixed curves, or effect the other way; inactive means flat fitted curve, though single readings scatter.
Form entry, call: pick from t for active, f for inactive

Hey, what did the test say about CCOC(=O)/C=C/C(=O)O ? f

Would you mind doing CO[Si](C)(OC)OC as well? f

Lookup C=CC(=O)NCOCC(C)C f

Repeat for the following compound: CC(C)=CC=O f

---

# procedure.text: qHTS assay to identify small molecule antagonists of the retinoic acid receptor (RAR) signaling pathway (AID 1159552; further: nearly all actives have a fitted effect of over 50% in size)
# condition.label: C3RL4 RARE luciferase reporter, retinol-stimulated, 6 h; series mostly up to 92.4 µM
Inconclusive results are not listed. Activity calls are given as the source filed them. Calls follow the shape of the dose curve; as a rule, active = well fitted inhibition curve with a large enough effect in the repeat runs; inconclusive = weak or mixed curves, or effect the other way; inactive = no such curve, though single readings can be large or run the other way.
Give one outcome, nothing more. List: True = active, False = inactive

The examples below pair each entry with its known result.
| molecule | category |
| --- | --- |
| CC1=C(/C=C/C(C)=C\C=C\C(C)=C\C(=O)O)C(C)(C)CCC1 | False |
| ON(Cc1ccccc1)Cc1ccccc1 | False |
| Cc1cnc(C)c(C)n1 | False |

Recorded test outcome, item CCCCC/C(=C\c1ccccc1)CO False

Next molecule up: COc1cc2[nH]c(=O)[nH]c(=O)c2cc1OC False

The reported numbers originate from PubChem BioAssay (Tox21).
